The reported measurements were obtained from ChEMBL document CHEMBL1154693.

# MEASUREMENT PROTOCOL: Clearance in Beagle dog at 0.5 mg/kg, iv
# Assay type: ADME, organism-based, Canis lupus familiaris
# Set-up: dose 0.5 mg/kg, route intravenous
# TEST SETTINGS: in vivo
MEASUREMENT TYPE: clearance

GET /values?readout=clearance&item= CO[C@H]1C[C@@H](CO[C@H]2CC[C@H](C(=O)O)CC2)N(C(=O)Cc2cc(Cl)c(NC(=O)c3cn(C)c4ccccc34)cc2Cl)C1
1.7 mL/min/kg

----------
# MEASUREMENT PROTOCOL: Cmax in Beagle dog at 0.5 mg/kg, po
# Assay type: ADME, organism-based, Canis lupus familiaris
# Parameters: dose 0.5 mg/kg, route oral
# TEST SETTINGS: in vivo
MEASUREMENT TYPE: Cmax (ng/mL)
Give the quantity in ng/mL, number only.

GET /values?readout=Cmax&item= CO[C@H]1C[C@@H](CO[C@H]2CC[C@H](C(=O)O)CC2)N(C(=O)Cc2cc(Cl)c(NC(=O)c3cn(C)c4ccccc34)cc2Cl)C1
1590

----------
# STUDY TARGET: Integrin alpha-4/beta-1 (Homo sapiens, UniProt P05556+P13612)
# Sequence (P05556 whole entry): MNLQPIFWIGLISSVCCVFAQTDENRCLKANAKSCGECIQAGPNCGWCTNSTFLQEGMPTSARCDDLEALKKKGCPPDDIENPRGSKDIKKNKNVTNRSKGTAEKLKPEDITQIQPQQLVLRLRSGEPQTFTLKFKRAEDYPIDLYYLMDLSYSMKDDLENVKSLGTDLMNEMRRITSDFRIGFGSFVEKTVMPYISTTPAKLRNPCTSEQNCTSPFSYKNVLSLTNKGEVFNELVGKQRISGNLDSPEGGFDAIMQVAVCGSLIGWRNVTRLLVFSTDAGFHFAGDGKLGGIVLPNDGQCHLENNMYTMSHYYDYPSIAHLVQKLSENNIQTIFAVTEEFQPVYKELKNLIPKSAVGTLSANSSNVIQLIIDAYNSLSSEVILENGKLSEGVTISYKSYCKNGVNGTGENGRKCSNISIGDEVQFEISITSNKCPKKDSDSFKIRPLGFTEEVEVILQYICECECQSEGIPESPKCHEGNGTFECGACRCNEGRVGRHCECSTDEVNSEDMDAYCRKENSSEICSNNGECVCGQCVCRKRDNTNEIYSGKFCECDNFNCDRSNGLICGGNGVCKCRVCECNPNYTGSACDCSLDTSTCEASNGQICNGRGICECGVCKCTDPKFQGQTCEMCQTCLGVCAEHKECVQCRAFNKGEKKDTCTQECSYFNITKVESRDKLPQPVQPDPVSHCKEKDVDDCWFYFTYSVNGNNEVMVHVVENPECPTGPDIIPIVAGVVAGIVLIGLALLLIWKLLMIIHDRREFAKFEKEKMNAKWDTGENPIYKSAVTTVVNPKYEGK
# Sequence (P13612 whole entry): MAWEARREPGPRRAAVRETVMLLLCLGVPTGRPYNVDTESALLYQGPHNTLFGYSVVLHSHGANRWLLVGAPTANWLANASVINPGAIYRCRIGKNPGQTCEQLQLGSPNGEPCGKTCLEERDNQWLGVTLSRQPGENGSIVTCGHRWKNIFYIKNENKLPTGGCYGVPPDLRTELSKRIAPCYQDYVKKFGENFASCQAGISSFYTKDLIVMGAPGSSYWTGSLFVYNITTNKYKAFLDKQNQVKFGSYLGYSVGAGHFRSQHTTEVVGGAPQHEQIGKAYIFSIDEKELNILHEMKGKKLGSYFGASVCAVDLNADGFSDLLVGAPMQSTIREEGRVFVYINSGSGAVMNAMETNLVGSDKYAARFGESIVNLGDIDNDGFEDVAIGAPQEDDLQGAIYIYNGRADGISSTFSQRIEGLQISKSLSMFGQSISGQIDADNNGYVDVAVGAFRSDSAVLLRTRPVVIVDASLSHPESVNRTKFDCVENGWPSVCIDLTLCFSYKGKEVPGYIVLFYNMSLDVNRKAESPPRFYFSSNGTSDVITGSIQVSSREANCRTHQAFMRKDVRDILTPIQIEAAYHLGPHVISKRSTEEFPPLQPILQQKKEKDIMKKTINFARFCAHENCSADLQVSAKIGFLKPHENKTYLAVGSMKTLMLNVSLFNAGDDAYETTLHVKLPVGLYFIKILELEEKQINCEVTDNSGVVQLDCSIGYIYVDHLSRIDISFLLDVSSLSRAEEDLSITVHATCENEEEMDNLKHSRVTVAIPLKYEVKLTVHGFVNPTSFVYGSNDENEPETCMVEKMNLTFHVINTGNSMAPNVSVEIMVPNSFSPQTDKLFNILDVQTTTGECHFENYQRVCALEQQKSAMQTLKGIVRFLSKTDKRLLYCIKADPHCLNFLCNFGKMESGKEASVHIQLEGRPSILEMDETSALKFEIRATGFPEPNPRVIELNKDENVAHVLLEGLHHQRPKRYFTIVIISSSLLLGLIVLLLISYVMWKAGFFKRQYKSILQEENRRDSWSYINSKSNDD
# MEASUREMENT PROTOCOL: Inhibition of europium labeled human VCAM1/Fc chimera binding to human VLA-4 alpha-4-beta-1 expressed in Chinese hamster 4B4 cells by fluorimetric assay
# Assay type: cell-based
Please provide measured log10(IC50) for the entries that follow.
Note: values are log10 of IC50 expressed in nM.

Under Integrin alpha-4/beta-1 (Homo sapiens, UniProt P05556+P13612): log10(IC50) value of O=C(Cc1ccc(Nc2nc3ccccc3o2)c(Cl)c1)N1C[C@@H](F)C[C@H]1CO[C@H]1CC[C@H](C(=O)O)CC1 ?
0.77

Under Integrin alpha-4/beta-1 (Homo sapiens, UniProt P05556+P13612): log10(IC50) value of O=C(Nc1cc(F)c(CC(=O)N2C[C@@H](F)C[C@H]2CO[C@H]2CC[C@H](C(=O)O)CC2)cc1Cl)c1n[nH]c2ccccc12 ?
0.93

Under Integrin alpha-4/beta-1 (Homo sapiens, UniProt P05556+P13612): log10(IC50) value of O=C(Nc1cc(F)c(CC(=O)N2C[C@@H](F)C[C@H]2CO[C@H]2CC[C@H](C(=O)O)CC2)cc1Cl)N1CCc2ccccc21 ?
0.43

Under Integrin alpha-4/beta-1 (Homo sapiens, UniProt P05556+P13612): log10(IC50) value of Cn1cc(C(=O)Nc2ccc(CC(=O)N3C[C@@H](F)C[C@H]3CO[C@H]3CC[C@H](C(=O)O)CC3)cc2Cl)c2ccccc21 ?
0.41

Under Integrin alpha-4/beta-1 (Homo sapiens, UniProt P05556+P13612): log10(IC50) value of O=C(Cc1ccc(Nc2nc3ccc(F)cc3o2)c(Cl)c1)N1C[C@@H](F)C[C@H]1CO[C@H]1CC[C@H](C(=O)O)CC1 ?
1.30

Under Integrin alpha-4/beta-1 (Homo sapiens, UniProt P05556+P13612): log10(IC50) value of Cc1cc(F)ccc1Nc1nc2ccc(CC(=O)N3C[C@@H](F)C[C@H]3CO[C@H]3CC[C@H](C(=O)O)CC3)c(F)c2o1 ?
1.08

Under Integrin alpha-4/beta-1 (Homo sapiens, UniProt P05556+P13612): log10(IC50) value of Cn1cc(C(=O)Nc2cc(F)c(CC(=O)N3C[C@@H](O)C[C@H]3CO[C@H]3CC[C@H](C(=O)O)CC3)cc2Cl)c2ccccc21 ?
0.81

Under Integrin alpha-4/beta-1 (Homo sapiens, UniProt P05556+P13612): log10(IC50) value of Cc1ccc(F)cc1Nc1nc2ccc(CC(=O)N3C[C@@H](F)C[C@H]3CO[C@H]3CC[C@H](C(=O)O)CC3)c(F)c2o1 ?
0.45

Under Integrin alpha-4/beta-1 (Homo sapiens, UniProt P05556+P13612): log10(IC50) value of O=C(Nc1cc(F)c(CC(=O)N2C[C@@H](F)C[C@H]2CO[C@H]2CC[C@H](C(=O)O)CC2)cc1Cl)c1noc2ccccc12 ?
2.11

Under Integrin alpha-4/beta-1 (Homo sapiens, UniProt P05556+P13612): log10(IC50) value of Cc1ccccc1Nc1nc2ccc(CC(=O)N3C[C@@H](F)C[C@H]3CO[C@H]3CC[C@H](C(=O)O)CC3)cc2o1 ?
0.45

Under Integrin alpha-4/beta-1 (Homo sapiens, UniProt P05556+P13612): log10(IC50) value of Cn1cc(C(=O)Nc2cc(Cl)c(CC(=O)N3C[C@@H](O)C[C@H]3CO[C@H]3CC[C@H](C(=O)O)CC3)cc2Cl)c2ccccc21 ?
0.89

Under Integrin alpha-4/beta-1 (Homo sapiens, UniProt P05556+P13612): log10(IC50) value of Cn1cc(C(=O)Nc2cc(F)c(CC(=O)N3CCC[C@H]3CO[C@H]3CC[C@H](C(=O)O)CC3)cc2Cl)c2ccccc21 ?
1.08

Under Integrin alpha-4/beta-1 (Homo sapiens, UniProt P05556+P13612): log10(IC50) value of O=C(Nc1ccc(CC(=O)N2C[C@@H](F)C[C@H]2CO[C@H]2CC[C@H](C(=O)O)CC2)cc1Cl)N1CCc2ccccc21 ?
0.28

Under Integrin alpha-4/beta-1 (Homo sapiens, UniProt P05556+P13612): log10(IC50) value of Cc1ccccc1Nc1nc2ccc(CC(=O)N3C[C@@H](F)C[C@H]3CO[C@H]3CC[C@H](C(=O)O)CC3)c(F)c2o1 ?
0.48

----------
Please provide measured clearance for the entries that follow.
# MEASUREMENT PROTOCOL: in vivo
# TEST SETTINGS: rat, plasma
Give the quantity in mL/min/kg, number only.

GET /values?readout=clearance&item= Cc1ccccc1Nc1nc2ccc(CC(=O)N3C[C@@H](F)C[C@H]3CO[C@H]3CC[C@H](C(=O)O)CC3)cc2o1
12.2

GET /values?readout=clearance&item= Cc1ccccc1NC(=O)Nc1ccc(CC(=O)N2C[C@@H](F)C[C@H]2COc2ccc(C(=O)O)cc2)cc1Cl
31.5

----------
# MEASUREMENT PROTOCOL: AUC in cynomolgus monkey at 0.5 mg/kg, iv
# Type: ADME, organism-based, Macaca fascicularis
# Set-up: dose 0.5 mg/kg, route intravenous
# TEST SETTINGS: plasma
MEASUREMENT TYPE: AUC (ng·h/mL)
Give the quantity in ng·h/mL, number only.

GET /values?readout=AUC&item= CO[C@H]1C[C@@H](CO[C@H]2CC[C@H](C(=O)O)CC2)N(C(=O)Cc2cc(Cl)c(NC(=O)c3cn(C)c4ccccc34)cc2Cl)C1
5140

----------
# MEASUREMENT PROTOCOL: Drug level in BALB/c mouse serum at 10 mg/kg, po after 15 mins
# Format: ADME, organism-based
# Set-up: dose 10 mg/kg, route oral
# TEST SETTINGS: read-out: Drug uptake
Please provide measured concentration at 0.25 h for the entries that follow.
Give the quantity in ng/mL, number only.

GET /values?readout=concentration at 0.25 h&item= Cc1ccc(F)cc1Nc1nc2ccc(CC(=O)N3C[C@@H](F)C[C@H]3CO[C@H]3CC[C@H](C(=O)O)CC3)c(F)c2o1
912

GET /values?readout=concentration at 0.25 h&item= Cn1cc(C(=O)Nc2cc(Cl)c(CC(=O)N3C[C@@H](O)C[C@H]3CO[C@H]3CC[C@H](C(=O)O)CC3)cc2Cl)c2ccccc21
93

GET /values?readout=concentration at 0.25 h&item= O=C(Cc1ccc(Nc2nc3ccccc3o2)c(Cl)c1)N1C[C@@H](F)C[C@H]1CO[C@H]1CC[C@H](C(=O)O)CC1
508

GET /values?readout=concentration at 0.25 h&item= O=C(Cc1ccc(Nc2nc3cc(F)ccc3o2)c(Cl)c1)N1C[C@@H](F)C[C@H]1CO[C@H]1CC[C@H](C(=O)O)CC1
358

----------
# STUDY TARGET: Integrin alpha-4/beta-1 (Homo sapiens, UniProt P05556+P13612)
# MEASUREMENT PROTOCOL: Inhibition of europium labeled human VCAM1/Fc chimera binding to human VLA-4 alpha-4-beta-1 expressed in Chinese hamster 4B4 cells in presence of 3% HSA by fluorimetric assay
# Type: cell-based
Label t when IC50 is strictly below 0.2 µM; otherwise label f.

Criterion: IC50 strictly below 0.2 µM. Is it met by O=C(Cc1ccc(Nc2nc3ccc(F)cc3o2)c(Cl)c1)N1C[C@@H](F)C[C@H]1CO[C@H]1CC[C@H](C(=O)O)CC1 ?
f

Criterion: IC50 strictly below 0.2 µM. Is it met by Cc1cccc2oc(Nc3ccc(CC(=O)N4C[C@@H](F)C[C@H]4CO[C@H]4CC[C@H](C(=O)O)CC4)cc3Cl)nc12 ?
f

Criterion: IC50 strictly below 0.2 µM. Is it met by Cn1cc(C(=O)Nc2cc(F)c(CC(=O)N3C[C@@H](O)C[C@H]3CO[C@H]3CC[C@H](C(=O)O)CC3)cc2Cl)c2ccccc21 ?
t

Criterion: IC50 strictly below 0.2 µM. Is it met by Cc1cc(F)ccc1Nc1nc2ccc(CC(=O)N3C[C@@H](F)C[C@H]3CO[C@H]3CC[C@H](C(=O)O)CC3)c(F)c2o1 ?
f

Criterion: IC50 strictly below 0.2 µM. Is it met by O=C(Nc1cc(F)c(CC(=O)N2C[C@@H](F)C[C@H]2CO[C@H]2CC[C@H](C(=O)O)CC2)cc1Cl)N1CCc2ccccc21 ?
t

Criterion: IC50 strictly below 0.2 µM. Is it met by Cn1cc(C(=O)Nc2ccc(CC(=O)N3C[C@@H](F)C[C@H]3CO[C@H]3CC[C@H](C(=O)O)CC3)cc2Cl)c2ccccc21 ?
t

Criterion: IC50 strictly below 0.2 µM. Is it met by O=C(Cc1ccc(Nc2nc3cc(F)ccc3o2)c(Cl)c1)N1C[C@@H](F)C[C@H]1CO[C@H]1CC[C@H](C(=O)O)CC1 ?
f

Criterion: IC50 strictly below 0.2 µM. Is it met by Cn1cc(C(=O)Nc2cc(F)c(CC(=O)N3CCC[C@H]3CO[C@H]3CC[C@H](C(=O)O)CC3)cc2Cl)c2ccccc21 ?
f

Criterion: IC50 strictly below 0.2 µM. Is it met by O=C(Nc1ccc(CC(=O)N2C[C@@H](F)C[C@H]2CO[C@H]2CC[C@H](C(=O)O)CC2)cc1Cl)c1c[nH]c2ccccc12 ?
t

Criterion: IC50 strictly below 0.2 µM. Is it met by CO[C@H]1C[C@@H](CO[C@H]2CC[C@H](C(=O)O)CC2)N(C(=O)Cc2cc(Cl)c(NC(=O)c3cn(C)c4ccccc34)cc2Cl)C1 ?
t

Criterion: IC50 strictly below 0.2 µM. Is it met by O=C(Nc1cc(F)c(CC(=O)N2C[C@@H](F)C[C@H]2CO[C@H]2CC[C@H](C(=O)O)CC2)cc1Cl)c1nccc2ccccc12 ?
f
